assay: Phase 1 single ascending dose (SAD) study: pharmacokinetics, food effect, formulation bridging; assay type: in vivo, human; conditions: both sexes, human, in vivo, po, 15 mg, single oral dose 15 mg, capsule, fed (high-fat, high-calorie breakfast); read-out: T1/2 (converted)
endpoint-label: half-life
Answers without a unit are incomplete; give the number and then its unit.

Lookup: Which half-life is listed for C=CC(=O)N1C[C@H](Nc2ncnc3[nH]cc([C@H]4CC4(F)F)c23)CC[C@@H]1C ?
Found: 1.73 h

###

experiment: Phase 1 single ascending dose (SAD) study: pharmacokinetics, food effect, formulation bridging; assay type: in vivo, human; conditions: both sexes, human, in vivo, po, 15 mg, single oral dose 15 mg, capsule, fed (high-fat, high-calorie breakfast); read-out: Vz/F
endpoint-label: Vd/F (L)
# number only, unit L dropped from output

Lookup: Which Vd/F is listed for C=CC(=O)N1C[C@H](Nc2ncnc3[nH]cc([C@H]4CC4(F)F)c23)CC[C@@H]1C ?
Found: 399

###

assay: Phase 1 multiple ascending dose (MAD) study: pharmacokinetics; type: in vivo, human; conditions: human, plasma, oral, 15 mg, Cohort 2, 15 mg BID, Day 15; read-out: Geometric Mean AUCINF_obs
endpoint-label: AUC(0-inf) (ng·h/mL)
# number only, unit ng·h/mL dropped from output

Lookup: Which AUC(0-inf) is listed for C=CC(=O)N1C[C@H](Nc2ncnc3[nH]cc([C@H]4CC4(F)F)c23)CC[C@@H]1C ?
Found: 111

###

assay: Phase 1 multiple ascending dose (MAD) study: pharmacokinetics; type: in vivo, human; settings: human, plasma, oral; 25 mg BID, steady-state, 8 hours post-dose
endpoint-label: concentration at 8 h (ng/mL)
# number only, unit ng/mL dropped from output

Lookup: Which concentration at 8 h is listed for C=CC(=O)N1C[C@H](Nc2ncnc3[nH]cc([C@H]4CC4(F)F)c23)CC[C@@H]1C ?
Found: 5.7

###

test system: ITK (IL2 mRNA); assay: Pre-clinical human whole blood αCD3/28/IL-2 mRNA (2 hr); assay type: cell-based; conditions: Homo sapiens, 2 h; read-out: Human Whole Blood EC50, αCD3/28/IL-2 mRNA (2 hr)
endpoint-label: EC50 (µM)
# number only, unit µM dropped from output

>  <compound>
C=CC(=O)N1C[C@H](Nc2ncnc3[nH]ccc23)CC[C@@H]1C [Ritlecitinib, reference compound]

>  <EC50 [µM]>
0.74

$$$$

Pending compound:
Lookup: Which EC50 is listed for C=CC(=O)N1C[C@H](Nc2ncnc3[nH]cc([C@H]4CC4(F)F)c23)CC[C@@H]1C ?
Found: 0.021

###

test: Phase 1 multiple ascending dose (MAD) study: pharmacokinetics; format: in vivo, human; conditions: human, plasma, oral, 40 mg, Cohort 5, 40 mg BID, Day 15; read-out: Geometric Mean Cmax
endpoint-label: Cmax (ng/mL)
# number only, unit ng/mL dropped from output

Lookup: Which Cmax is listed for C=CC(=O)N1C[C@H](Nc2ncnc3[nH]cc([C@H]4CC4(F)F)c23)CC[C@@H]1C [Compound I] ?
Found: 138

###

experiment: Phase 1 multiple ascending dose (MAD) study: pharmacokinetics; assay type: in vivo, human; details: human, plasma, oral, 25 mg, Cohort 4, 25 mg BID, Day 1; read-out: Geometric Mean Tmax
endpoint-label: Tmax (min)
# number only, unit min dropped from output

Lookup: Which Tmax is listed for C=CC(=O)N1C[C@H](Nc2ncnc3[nH]cc([C@H]4CC4(F)F)c23)CC[C@@H]1C ?
Found: 50.4

###

Assay: Phase 1 single ascending dose (SAD) study: pharmacokinetics, food effect, formulation bridging
Format: in vivo, human
Details: both sexes, human, in vivo, po, 25 mg, single oral dose 25 mg, capsule, fasted; read-out: AUC0-24
Experimental: Type of Study—This was an FIH, randomized, observer-blind, placebo-controlled study designed to evaluate the safety, tolerability, PK, and PD of Compound I in healthy subjects. The study consisted of: single ascending dose (SAD) cohorts (1-80 mg/day) plus formulation bridging and food effect (FE) cohorts. Approximately 64 male and female subjects were enrolled into 8 planned cohorts in the SAD study. […]
endpoint-label: AUC(0-t) (ng·h/mL)
# number only, unit ng·h/mL dropped from output

Lookup: Which AUC(0-t) is listed for C=CC(=O)N1C[C@H](Nc2ncnc3[nH]cc([C@H]4CC4(F)F)c23)CC[C@@H]1C [Compound I] ?
Found: 153

###

biological target: JAK3 (Homo sapiens); construct: IL-2/pSTAT5; endogenous in cells; experiment: Cell IC50 JAK3 hPBMC IL-2/pSTAT5; settings: hPBMC, IL-2/pSTAT5
Sequence (P52333 whole entry): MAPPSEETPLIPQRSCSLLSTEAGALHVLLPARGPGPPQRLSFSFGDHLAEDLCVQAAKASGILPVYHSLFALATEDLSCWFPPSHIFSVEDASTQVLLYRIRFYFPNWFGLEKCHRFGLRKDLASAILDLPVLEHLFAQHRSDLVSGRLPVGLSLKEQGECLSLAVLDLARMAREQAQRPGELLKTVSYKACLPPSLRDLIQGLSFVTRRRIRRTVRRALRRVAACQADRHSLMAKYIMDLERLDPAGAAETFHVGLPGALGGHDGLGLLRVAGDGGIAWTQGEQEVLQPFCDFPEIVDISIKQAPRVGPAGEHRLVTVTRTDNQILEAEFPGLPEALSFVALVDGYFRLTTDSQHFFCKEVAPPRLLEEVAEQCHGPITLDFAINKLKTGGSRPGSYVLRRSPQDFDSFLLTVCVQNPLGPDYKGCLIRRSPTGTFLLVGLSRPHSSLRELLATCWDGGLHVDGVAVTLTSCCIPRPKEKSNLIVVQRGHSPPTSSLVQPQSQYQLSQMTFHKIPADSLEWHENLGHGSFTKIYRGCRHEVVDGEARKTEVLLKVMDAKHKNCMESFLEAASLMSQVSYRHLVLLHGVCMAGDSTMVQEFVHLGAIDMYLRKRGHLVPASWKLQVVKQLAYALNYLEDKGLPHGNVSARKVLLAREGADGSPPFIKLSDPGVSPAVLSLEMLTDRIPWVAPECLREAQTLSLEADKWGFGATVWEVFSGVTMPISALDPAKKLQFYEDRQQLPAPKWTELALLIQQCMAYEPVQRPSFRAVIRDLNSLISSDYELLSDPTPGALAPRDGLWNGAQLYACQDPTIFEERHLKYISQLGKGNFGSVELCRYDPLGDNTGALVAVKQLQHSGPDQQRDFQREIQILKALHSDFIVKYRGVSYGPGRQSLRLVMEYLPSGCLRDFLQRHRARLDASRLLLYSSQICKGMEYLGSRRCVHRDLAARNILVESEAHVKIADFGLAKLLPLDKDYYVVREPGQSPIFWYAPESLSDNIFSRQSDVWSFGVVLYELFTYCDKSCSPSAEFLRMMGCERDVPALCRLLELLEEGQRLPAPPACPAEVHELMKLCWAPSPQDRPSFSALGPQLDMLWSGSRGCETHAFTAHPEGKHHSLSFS
endpoint-label: IC50 (nM)
# number only, unit nM dropped from output

Lookup: Which IC50 is listed for C=CC(=O)N1C[C@H](Nc2ncnc3[nH]cc([C@H]4CC4(F)F)c23)CC[C@@H]1C ?
Found: 23

###

assay: 13 week toxicology and toxicokinetic study in cynomolgus monkeys; assay type: in vivo, cynomolgus monkey; conditions: cynomolgus monkey, in vivo, 3 mg/kg, monkey 3 mpk, Day 1; read-out: AUC0-24
endpoint-label: AUC(0-t) (ng·h/mL)
# number only, unit ng·h/mL dropped from output

Lookup: Which AUC(0-t) is listed for C=CC(=O)N1C[C@H](Nc2ncnc3[nH]cc([C@H]4CC4(F)F)c23)CC[C@@H]1C [Compound I] ?
Found: 153

###

test system: JAK3 (pSTAT5, CD3+ T); assay: Pre-clinical IL2 stimulated pSTAT5 in CD3+ T cells; type: cell-based; conditions: Homo sapiens, T-cell
endpoint-label: EC50 (µM)
# number only, unit µM dropped from output

Lookup: Please state recorded EC50 (tested on JAK3 (pSTAT5, CD3+ T)) of C=CC(=O)N1C[C@H](Nc2ncnc3[nH]cc([C@H]4CC4(F)F)c23)CC[C@@H]1C
Found: 0.14

###

test system: JAK3 (pSTAT5, lymph); assay: SAD ex vivo PD: IL2 stimulated pSTAT5 in lymphocytes; conditions: Homo sapiens, Lymphocyte; SAD study; read-out: Clinical EC50
endpoint-label: EC50
Answers without a unit are incomplete; give the number and then its unit.

Lookup: Which EC50 is listed for C=CC(=O)N1C[C@H](Nc2ncnc3[nH]cc([C@H]4CC4(F)F)c23)CC[C@@H]1C ?
Found: 0.137 µM

###

assay: Phase 1 single ascending dose (SAD) study: pharmacokinetics, food effect, formulation bridging; type: in vivo, human; details: both sexes, human, in vivo, po, 15 mg, single oral dose 15 mg, capsule, fasted; read-out: Vz/F
endpoint-label: Vd/F (L)
# number only, unit L dropped from output

Lookup: Which Vd/F is listed for C=CC(=O)N1C[C@H](Nc2ncnc3[nH]cc([C@H]4CC4(F)F)c23)CC[C@@H]1C [Compound I] ?
Found: 360

###

test: 13 week toxicology and toxicokinetic study in cynomolgus monkeys; type: in vivo, cynomolgus monkey; details: cynomolgus monkey, in vivo, 6 mg/kg, monkey 6 mpk, Day 1; read-out: AUC0-24
endpoint-label: AUC(0-t) (ng·h/mL)
# number only, unit ng·h/mL dropped from output

Lookup: Which AUC(0-t) is listed for C=CC(=O)N1C[C@H](Nc2ncnc3[nH]cc([C@H]4CC4(F)F)c23)CC[C@@H]1C ?
Found: 692

###

assay: Phase 1 single ascending dose (SAD) study: pharmacokinetics, food effect, formulation bridging; format: in vivo, human; settings: both sexes, human, in vivo, po, 15 mg, single oral dose 15 mg, capsule, fasted; read-out: AUC0-24
endpoint-label: AUC(0-t) (ng·h/mL)
# number only, unit ng·h/mL dropped from output

Lookup: Which AUC(0-t) is listed for C=CC(=O)N1C[C@H](Nc2ncnc3[nH]cc([C@H]4CC4(F)F)c23)CC[C@@H]1C [Compound I] ?
Found: 95.7

###

assay: Phase 1 multiple ascending dose (MAD) study: pharmacokinetics; assay type: in vivo, human; conditions: human, plasma, oral, 40 mg, Cohort 5, 40 mg BID, Day 15; read-out: Geometric Mean AUC_0-12
endpoint-label: AUC(0-t) (ng·h/mL)
# number only, unit ng·h/mL dropped from output

Lookup: Which AUC(0-t) is listed for C=CC(=O)N1C[C@H](Nc2ncnc3[nH]cc([C@H]4CC4(F)F)c23)CC[C@@H]1C [Compound I] ?
Found: 472

###

test: Phase 1 multiple ascending dose (MAD) study: pharmacokinetics; assay type: in vivo, human; settings: human, plasma, oral, 30 mg, Cohort 3a, 30 mg QD, Day 7; read-out: Geometric Mean Cmax
endpoint-label: Cmax (ng/mL)
# number only, unit ng/mL dropped from output

Lookup: Which Cmax is listed for C=CC(=O)N1C[C@H](Nc2ncnc3[nH]cc([C@H]4CC4(F)F)c23)CC[C@@H]1C ?
Found: 124

###

Assay: 13 week toxicology and toxicokinetic study in cynomolgus monkeys
Type: in vivo, cynomolgus monkey
Settings: cynomolgus monkey, in vivo, 12 mg/kg, monkey 12 mpk, Day 1; read-out: Cmax
Source text: Purpose: Evaluation of toxicity and toxicokinetic (TK) for Compound I, following daily dosing for 13 weeks.
endpoint-label: Cmax (ng/mL)
# number only, unit ng/mL dropped from output

Lookup: Which Cmax is listed for C=CC(=O)N1C[C@H](Nc2ncnc3[nH]cc([C@H]4CC4(F)F)c23)CC[C@@H]1C [Compound I] ?
Found: 975

Data provenance: patent US20260191863A1
